# Tested on: M.intracellulare 20067
# test: Antibacterial activity (MIC), atypical acid-fast bacteria
# Format: cell-based
# run-conditions: Mycobacterium intracellulare, 10^6/ml of colony forming bacteria
result-type: MIC (µg/mL)

{"columns": ["molecule", "unit-info", "measured-result"],
 "data": [
  ["COC(=S)NC[C@H]1CN(c2ccc(N3CCSCC3)c(F)c2)C(=O)O1 [Example 1]", "µg/mL", 0.39],
  ["CC(=O)NC[C@H]1CN(c2ccc(N3CCOCC3)c(F)c2)C(=O)O1 [Reference compound, Linezolid, reference compound]", "µg/mL", 12.5],
  ["COC(=S)NC[C@H]1CN(c2ccc(N3CCCC3)c(F)c2)C(=O)O1 [Example 4]", "µg/mL", 1.56]
]}

[P] COC(=S)NC[C@H]1CN(c2ccc(N3CCS(=O)(=O)CC3)c(F)c2)C(=O)O1 [Example 3]
[Q] COC(=S)NC[C@H]1CN(c2ccc(N3CC[S+]([O-])CC3)c(F)c2)C(=O)O1 [Example 2]
(Q) Task for the reader: decide whether P or Q has the larger MIC. Give the label under which the chosen entry appears.
(A) Q
(Q: 6.25 µg/mL, P: 3.13 µg/mL)

###

Here's what we have: MIC numbers for M.avium 20096.
result-type: MIC (µg/mL)

{"columns": ["molecule", "MIC [µg/mL]"],
 "data": [
  ["COC(=S)NC[C@H]1CN(c2ccc(N3CCSCC3)c(F)c2)C(=O)O1", 0.39],
  ["CC(=O)NC[C@H]1CN(c2ccc(N3CCOCC3)c(F)c2)C(=O)O1 [Reference compound, Linezolid, reference compound]", 50],
  ["COC(=S)NC[C@H]1CN(c2ccc(N3CCS(=O)(=O)CC3)c(F)c2)C(=O)O1", 3.13]
]}

[1] COC(=S)NC[C@H]1CN(c2ccc(N3CC[S+]([O-])CC3)c(F)c2)C(=O)O1
[2] COC(=S)NC[C@H]1CN(c2ccc(N3CCCC3)c(F)c2)C(=O)O1
(Q) Task for the reader: decide whether 1 or 2 has the larger MIC. Give the label under which the chosen entry appears.
(A) 1
(1: 3.13 µg/mL, 2: 1.56 µg/mL)

Value source: patent EP1130016A1
